The entries below are paired with their reported pKd.
molecular target: T1, wt MPER peptide (HIV-1, strain  (synthetic …)); assay: BLI; Octet Red; Mabs captured on anti-human IgG Fc biosensors (10 µg/mL), peptides or ES2 as analyte in solution, two-fold dilutions 500 nM to 7.81 nM, PBS pH 7.4, 0.2% Tween 20, 60 s association and 60 s dissociation, no lipid; Langmuir 1:1 fit; also used for the alanine-substituted MPER peptides; conditions: both partners purified
T1 construct: source: synthetic peptide (Genscript)
Note: pKd values are expressed as the negative base-10 logarithm of concentration in M.

Use the examples below as a reference point.
2F5 CDRH3 length-altered variant r4 (antibody, V domains shown) VH: RITLKESGPPLVKPTQTLTLTCSFSGFSLSDFGVGVGWIRQPPGKALEWLAIIYSDDDKRYSPSLNTRLTITKDTSKNQVVLVMTRVSPVDTATYFCAHRRGPLFGVARGPVNAMDVWGQGITVTISS VL: ALQLTQSPSSLSASVGDRITITCRASQGVTSALAWYRQKPGSPPQLLIYDASSLESGVPSRFSGSGSGTEFTLTISTLRPEDFATYYCQQLHFYPHTFGGGTRVDVR yielded pKd of 6.42

2F5 CDRH3 length-altered variant e2 (antibody, V domains shown) VH: RITLKESGPPLVKPTQTLTLTCSFSGFSLSDFGVGVGWIRQPPGKALEWLAIIYSDDDKRYSPSLNTRLTITKDTSKNQVVLVMTRVSPVDTATYFCAHRRGPTTGLFGVGPIARGPVNAMDVWGQGITVTISS VL: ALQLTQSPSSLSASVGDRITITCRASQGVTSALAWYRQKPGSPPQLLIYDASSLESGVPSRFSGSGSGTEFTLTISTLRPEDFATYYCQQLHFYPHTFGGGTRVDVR yielded pKd of 6.33

2F5 CDRH3 length-altered variant r6 (antibody, V domains shown) VH: RITLKESGPPLVKPTQTLTLTCSFSGFSLSDFGVGVGWIRQPPGKALEWLAIIYSDDDKRYSPSLNTRLTITKDTSKNQVVLVMTRVSPVDTATYFCAHRRGLFGVRGPVNAMDVWGQGITVTISS VL: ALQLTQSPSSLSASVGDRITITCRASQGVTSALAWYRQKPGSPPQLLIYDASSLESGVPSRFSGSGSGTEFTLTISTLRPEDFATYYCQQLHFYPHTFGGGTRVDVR yielded pKd of 6.41

2F5 CDRH3 length-altered variant r2 (antibody, V domains shown) VH: RITLKESGPPLVKPTQTLTLTCSFSGFSLSDFGVGVGWIRQPPGKALEWLAIIYSDDDKRYSPSLNTRLTITKDTSKNQVVLVMTRVSPVDTATYFCAHRRGPTLFGVIARGPVNAMDVWGQGITVTISS VL: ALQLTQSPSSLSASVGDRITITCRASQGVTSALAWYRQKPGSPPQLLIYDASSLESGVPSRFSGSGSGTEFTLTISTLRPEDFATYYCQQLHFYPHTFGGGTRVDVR yielded pKd of 7.04

Proceed to the following item.
2F5 CDRH3 length-altered variant e4 (antibody, V domains shown) VH: RITLKESGPPLVKPTQTLTLTCSFSGFSLSDFGVGVGWIRQPPGKALEWLAIIYSDDDKRYSPSLNTRLTITKDTSKNQVVLVMTRVSPVDTATYFCAHRRGPTTGGLFGVGGPIARGPVNAMDVWGQGITVTISS VL: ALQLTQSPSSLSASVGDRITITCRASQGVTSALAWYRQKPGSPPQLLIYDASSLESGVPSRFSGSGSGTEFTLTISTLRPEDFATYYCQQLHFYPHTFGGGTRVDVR yielded pKd of 6.62
